- Tested on: M14 melanoma
- experiment-description: NCI-60 one-dose screen, 48 h (100 = growth as untreated, 0 = no growth, -100 = all killed)
- settings: 10 µM unless noted
- Description: Growth inhibition of the M14 human tumor cell line is measured as a screen for anti-cancer activity. Cells are grown in 96 well plates and exposed to the test compound for 48 hours. Compounds are tested at a single concentration, which is 10^-5 M for most compounds. The reported endpoint is percent growth (GI% or GIPRCNT), where numbers from 0 - 100% represent growth inhibition, and numbers from -100% - 0 represent cell death. For example, a value of 40 represents 60% growth inhibition. […]
Compounds without any hit were thinned out: in the full panel of roughly 83,000, 20% have a hit.
metric: growth (%)
Provide only the numeric value, understood in %.

# input compound: `N/C(=N\C(N)=N\c1nc2ccccc2s1)c1cccc(Cl)c1` ; wanted: its growth
96.1

Which growth is listed for CC(=O)O[C@@H]1C2CCC3C(CC[C@@]4(C)C3CC[C@@H]4C(C)N(C)C)[C@@]2(C)CC[C@@H]1NC(=O)C=C(C)C (stereo partly specified) ?
-44.4

Which growth value is on record for `O=C1/C=C/[C@@H](O)[C@@H]2C[C@@H](O)C[C@H]2/C=C/CCC[C@H](CCc2ccc3ncccc3c2)O1` ?
6.52

Report growth for `COc1cc2c(cc1OC)C(=O)/C(=C/c1cc(C)c(O)c(C)c1)S2` please.
19.1

Find the recorded growth belonging to Cc1ccc(-n2nc3c(c(C#N)c2=O)CC(c2ccccc2[N+](=O)[O-])C([N+](=O)[O-])=C3O)cc1 (stereo unspecified) and report it.
92.1

Any idea what growth was measured for `O=Cc1cc2ccccc2nc1Oc1ccc(C(F)(F)F)cc1` ?
99.8

Look up growth for this compound: C/C=C(\C)C(=O)NC1=CC[C@@]2(C)C(=CCC3C2CC[C@@]2(C)C3CC[C@@H]2C(C)N(C)C)C1=O (stereo partly specified)
-32.1

What does the record list as growth for CC1=C(C(=O)/C=C/c2ccc(N(C)C)cc2)C(c2ccccc2)NC(=S)N1 (stereo unspecified) ?
101

Sample `CCOC(=O)c1nc2c3ccccc3ccn2c1C(=O)OCC` — what was its growth?
121

For the compound `COc1ccc2[nH]c(O)c(/C=c3/cc4c(c(-c5ccc(F)cc5)n3)=Nc3ccccc3-4)c2c1` , what growth is on record?
92.3

Return reported growth; argument: CN1C(=O)NC(c2ccc3c(c2)OCO3)C=C1c1ccccc1 (stereo unspecified)
96.9

Requested read-out: growth. Entry: `CCCCCC(=O)Oc1ccc(/C(=C(/C)Cc2ccc(OC)cc2)c2ccc(OCCCN(C)C)cc2)cc1`
36.3

Report growth for `Cc1c2cc[nH]c(=O)c2c(C)c2c1[nH]c1cc(OCCN3CCN(C)CC3)ccc12` please.
-37.1

So what's the measured growth for this one? `COc1cccc(-c2ccc3c(c2)NC(=O)/C3=C\c2ccc[nH]2)c1`
39.2

Can you look up the measured growth of `O=C1/C=C/[C@@H](O)[C@@H]2C[C@@H](O)C[C@H]2/C=C/CCC[C@H](CCc2cccc3ccccc23)O1` for me?
5.14

I'd like to know its growth. The compound in question is `O=C(Cn1c[n+](CC(=O)c2ccc([N+](=O)[O-])cc2)c2ccccc21)Nc1cccc2cccnc12`
78.4

Any idea what its growth is? The compound is `O=C(Cc1ccc(/C=C/C(=O)c2nccs2)cc1)Nc1ccccc1`
93.1

Value lookup for growth; key = `COc1cc(/C=C\c2cc(OC)c(OC)c(OC)c2)cc(N)c1OC`
66.1

What does the data say about its growth? Entry: `O=C(Nc1ccccc1)Nc1ccc2cc3ccc(NC(=O)Nc4ccccc4)cc3nc2c1`
47.2

Please look up its growth: O=[N+]([O-])CC(c1ccccc1)c1c[nH]c2ccccc12 (stereo unspecified)
23.2

# query: growth of entry `CC1(C)CC[C@]2(C(=O)O)CC[C@]3(C)C(=CC[C@@H]4[C@@]5(C)Cc6c([nH]c7ccccc67)C(C)(C)[C@@H]5CC[C@]43C)[C@@H]2C1`
76.4

Would you kindly share the measured growth for `CCN(CC)c1ccc(/C=N/NC(=O)CSc2nc3ccccc3c(=O)n2CCc2ccc(S(N)(=O)=O)cc2)c(O)c1` ?
31.1

Recorded growth for `C/C(=N\NC(=O)CSc1nc2ccccc2c(=O)n1CCc1ccc(S(N)(=O)=O)cc1)c1ccccn1` , please?
17.6

Quick one: growth for `COc1cc2nc(-c3ccc(C(F)(F)F)cc3)cc(OCCCN3CCOCC3)c2cc1OC` ?
-56

# input compound: `CCOc1cccc(-c2nc(N)nc(Nc3ccccc3SSc3ccccc3Nc3nc(N)nc(-c4cccc(OCC)c4)n3)n2)c1` ; wanted: its growth
69.4

Give its growth value. Item: CN(C)c1ccc(C2C(C#N)=C(/N=C/c3ccccc3)Oc3c2ccc2ccccc32)cc1 (stereo unspecified)
59.4

====

- Tested on: HT29 colon
- experiment-description: NCI-60 one-dose screen, 48 h (100 = growth as untreated, 0 = no growth, -100 = all killed)
- settings: 10 µM unless noted
Compounds without any hit were thinned out: in the full panel of roughly 83,000, 20% have a hit.
Give growth for every item shown.
Provide the reading as a plain figure in %.

// fetch HT29 colon growth for `COc1cccc(-c2cc(C(=O)Nc3ccc(/C=C/c4ccc(OC5CCN(C)CC5)cc4)cc3)ccc2OC)c1`
-60.1

Give the reported growth for `CCCC/C=N/NC(=S)NCc1ccccc1` (system: HT29 colon).
101

Item: `Cc1ccc(-c2[nH][nH]c(=O)c2-c2nc3ccccc3s2)cc1` Test system: HT29 colon Read-out: growth Value: ?
104

# query: growth | item `O=C1c2cccc3c(-c4ccc5c(c4)ncn5C4CCCCC4)ccc(c23)C(=O)N1CCO` | system: HT29 colon
83.6

Entry `COc1ccccc1/C(C)=N/NC(=O)CSc1nc2ccccc2c(=O)n1Cc1ccc(S(N)(=O)=O)cc1` , system HT29 colon: what growth was measured?
114

# get_value(readout= growth, system= HT29 colon) for `COc1cc(CC(=O)c2ccc(O)c(OC)c2)ccc1O`
94.3

growth of `CCCCOc1ccc(/C(C)=N/Nc2cc(C)nc3ccc(Br)cc23)cc1` on HT29 colon?
45.1

====

- Test system: NCI-H226 lung
- experiment-description: NCI-60 one-dose screen, 48 h
- settings: 10 µM unless noted
About 83,000 compounds went through this panel and 20% of them were active in at least one assay; those are over-represented in the sample as a whole. Calls of active or inactive are those of the source. Rule for the calls: active = growth percent below 10; inactive = the rest.
I would appreciate it if you answered using one of these outcomes: active, inactive

Dear colleague, could you share the recorded outcome for `COc1ccc(/C=C/c2nc(Nc3ccc(S(=O)(=O)Nc4cc(C)on4)cc3)c3ccccc3n2)cc1` when you have a moment?
inactive

Could you please tell me the result logged for `COc1ccc(Cc2cnc(NC(=O)c3ccc4c(c3)OCCO4)s2)cc1` in this assay?
active

# outcome recorded in this test, key = `COc1cc(/C=C\c2cc(OC)c(OC)c(OC)c2)cc(N)c1OC`
inactive

What classification did O=[N+]([O-])CC(c1ccccc1)c1c[nH]c2ccccc12 (centres undefined) end up with in this test?
inactive

Please state the recorded outcome for this compound: `N=C1C(c2nc3ccccc3s2)=C(O)CN1c1cc(Cl)cc(Cl)c1`
inactive

// param item: `C=C(C)[C@@H]1CC[C@]2(C(=O)N[C@H](CO)Cc3ccccc3)CC[C@]3(C)[C@H](CC[C@@H]4[C@@]5(C)CCCNC(C)(C)[C@@H]5CC[C@]43C)[C@@H]12` ; yields the recorded call
active

Please state the recorded outcome for this compound: O=C(C1CCC1)N1N=C(c2ccc(-n3ccc(C(F)(F)F)n3)cc2)CC1c1ccc[nH]1 (centres undefined)
inactive

Tell me the assay call for `C=C(C)[C@@H]1CC[C@]2(C(=O)N3CCN(C)CC3)CC[C@]3(C)[C@H](CC[C@@H]4[C@@]5(C)C/C(=C/c6cccnc6)C(=O)C(C)(C)[C@@H]5CC[C@]43C)[C@@H]12` please.
inactive

State the result this test recorded for `O=c1ccc(-c2nc(N3CCOCC3)c3ccccc3n2)c[nH]1` .
inactive

Status in this test for `COc1ccc(C(=O)c2cc(C)c(OC)c(C)c2)c(OC)c1OC(=O)C(Cl)Cl` ?
active

What classification did `O=C1Nc2cc(-c3ccc(NC(=O)c4ccccc4)cc3)ccc2/C1=C/c1ccc[nH]1` end up with in this test?
inactive

Record request — test call for `O=Cc1cc2ccccc2nc1Oc1ccc(C(F)(F)F)cc1`
inactive

Per the assay record, what outcome was assigned to `CCc1ccc(-c2cn3ccnc3c(-c3ccc4ncn(Cc5ccccc5)c4c3)n2)cc1` ?
inactive

Could you kindly confirm the outcome this assay logged for `Cn1ccnc1C(=O)/C=C/c1ccc(CC(=O)NC2CCCCC2)cc1` ?
inactive

Cited source for all entries: PubChem BioAssay (NCI)
